The measurements presented in this section are drawn from paper PMC4336329.

- target-under-test: human ether-à-go-go-related gene (hERG) potassium channel (human);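 further: peak tail current of the secondary pulse compared with the same well before compound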
- Sequence (Q12809 whole entry, looked up): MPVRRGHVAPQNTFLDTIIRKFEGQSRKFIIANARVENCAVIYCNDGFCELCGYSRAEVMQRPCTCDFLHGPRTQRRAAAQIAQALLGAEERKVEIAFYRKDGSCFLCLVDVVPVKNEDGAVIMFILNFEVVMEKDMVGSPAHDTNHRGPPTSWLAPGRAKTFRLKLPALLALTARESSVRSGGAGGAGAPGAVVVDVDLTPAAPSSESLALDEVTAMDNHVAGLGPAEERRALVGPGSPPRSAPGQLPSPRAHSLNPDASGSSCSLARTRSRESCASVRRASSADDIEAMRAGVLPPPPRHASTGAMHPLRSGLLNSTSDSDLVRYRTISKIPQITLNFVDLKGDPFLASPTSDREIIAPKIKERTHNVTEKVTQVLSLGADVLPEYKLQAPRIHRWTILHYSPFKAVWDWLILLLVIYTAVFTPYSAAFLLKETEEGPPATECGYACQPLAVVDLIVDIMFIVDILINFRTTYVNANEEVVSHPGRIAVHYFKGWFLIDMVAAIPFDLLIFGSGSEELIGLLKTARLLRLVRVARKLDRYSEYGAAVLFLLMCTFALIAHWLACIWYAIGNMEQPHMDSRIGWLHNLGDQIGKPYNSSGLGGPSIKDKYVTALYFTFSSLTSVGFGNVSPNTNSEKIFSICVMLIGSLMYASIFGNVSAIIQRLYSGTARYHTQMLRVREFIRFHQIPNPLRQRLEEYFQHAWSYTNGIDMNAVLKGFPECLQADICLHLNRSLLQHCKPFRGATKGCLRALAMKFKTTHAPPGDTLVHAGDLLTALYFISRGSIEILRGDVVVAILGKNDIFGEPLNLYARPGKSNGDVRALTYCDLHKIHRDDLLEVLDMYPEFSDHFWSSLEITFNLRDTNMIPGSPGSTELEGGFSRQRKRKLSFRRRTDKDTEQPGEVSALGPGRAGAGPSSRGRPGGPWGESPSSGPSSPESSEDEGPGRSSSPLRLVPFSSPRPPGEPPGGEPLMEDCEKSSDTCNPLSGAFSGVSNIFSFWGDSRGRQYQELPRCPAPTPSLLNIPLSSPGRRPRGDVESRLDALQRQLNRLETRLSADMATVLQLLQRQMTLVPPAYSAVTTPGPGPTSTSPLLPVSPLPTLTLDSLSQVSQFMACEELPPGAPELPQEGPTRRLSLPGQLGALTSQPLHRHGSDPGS
- test-protocol: primary screen, population patch clamp on CHO cells stably expressing hERG; higher = less effect of the substance
- Method: Briefly, Chinese hamster ovary (CHO) cells stably expressing the hERG channel were dislodged from tissue culture flasks and dispensed into PPC plates. […] During the recording, background leak currents were estimated by a 100 ms step to -80 mV from an initial holding potential of -70 mV and subtracted from the subsequent current measurement. The campaign was conducted in two phases using slight differences in recording protocol. […]
Out of some 310,000 compounds screened, about 14,000 (4.5%) showed an effect of 50% or more. The effect is printed as a negative number. This is one part of a sample in which strong results are shown more often than they occur.
The following compounds are shown together with reported hERG current change (%, negative = inhibition) at 10uM values.
Give the number; % is assumed, so skip it.

Asked: Could you share which hERG current change (%, negative = inhibition) at 10uM value was measured for `O=C(Nc1cccc2ccccc12)/C(=C/c1cccc([N+](=O)[O-])c1)NC(=O)c1cccs1` ?
Given back: -67.7

Asked: For `COc1ccc(C(=O)NCC(=O)OCC(=O)c2ccc3c(c2)NC(=O)CO3)cc1OC` then?
Given back: -22

Asked: For `CC(=O)N1CCN(C(=O)c2cccc(S(=O)(=O)N3CCN(c4ccccc4)CC3)c2)CC1` then?
Given back: -16.5

Asked: For `Cc1ccc(C(=O)NCC(=O)OCC(=O)c2ccc3c(c2)NC(=O)CO3)cc1C` then?
Given back: -5.7

Asked: For `COc1ccc(OCCCC(=O)OCC(=O)c2ccc3c(c2)NC(=O)CO3)cc1` then?
Given back: 15.7

Asked: For `Cc1cc(NCCc2ccccc2F)n2ncnc2n1` then?
Given back: -1.21

Asked: For `O=C(c1cccc(S(=O)(=O)N2CCCCC2)c1)N1CCN(c2ccccc2)CC1` then?
Given back: -73.1

Asked: For `Cc1ccc(C(=O)NNC(=O)c2cccc(S(=O)(=O)N3CCN(c4ccccc4)CC3)c2)cc1` then?
Given back: -25.4

Asked: For `C=CCn1c(C)cc(C(=O)CSc2nnc(NCc3ccccc3)s2)c1C` then?
Given back: -8.54

Asked: For `O=C(Nc1nnc(-c2ccc(Br)cc2)o1)C1=COCCO1` then?
Given back: 3.07

Asked: For `O=C1COc2ccc(C(=O)COC(=O)CNC(=O)c3ccccc3)cc2N1` then?
Given back: -4.81

Asked: For CC12CCC(C(=O)Nc3nc4ccccc4s3)(OC1=O)C2(C)C (stereo not shown) then?
Given back: 2.26

Asked: For CCc1nnc(NC(=O)CSc2nc3c(c(=O)n2C)SC(C)C3)s1 (stereo not shown) then?
Given back: -2.54

Asked: For `COc1ccc(C(=O)NCC(=O)OCC(=O)c2ccc3c(c2)NC(=O)CO3)cc1` then?
Given back: -65.1
